Assay: amyloid nucleation score (Sup35N fusion, yeast selection) (log enrichment); library NNK2; higher = more nucleation; inactive = no reads after selection;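 also: zero at mode of non-aggregating sequences after 7 days selection at 30°C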
Returns one of criterion met or criterion not met; criterion met when amyloid nucleation score is >= 0.2.

Here are 3 sequences together with their reported answers.
sequence-record	class-assignment
SFVTYSNSLFFTISSDSK	criterion met
FTVVIINISYTLSVLRERQM	criterion met
DFYVSVPLRNCFSMSFIKWV	criterion not met

Is the recorded value of amyloid nucleation score equal to or greater than 0.2 for this sequence? SRTYATRLQLM criterion not met

Is the recorded value of amyloid nucleation score equal to or greater than 0.2 for this sequence? RNFDRGWSHR criterion met

Is the recorded value of amyloid nucleation score equal to or greater than 0.2 for this sequence? EDAFMSFCMVRLWDHF criterion not met

Is the recorded value of amyloid nucleation score equal to or greater than 0.2 for this sequence? TVRASCFRVSVRKEKKIVVA criterion met

Is the recorded value of amyloid nucleation score equal to or greater than 0.2 for this sequence? LAHGPWGVSGDSV criterion not met

Is the recorded value of amyloid nucleation score equal to or greater than 0.2 for this sequence? YRFAGYVTPRFGYKSHNISL criterion not met

Is the recorded value of amyloid nucleation score equal to or greater than 0.2 for this sequence? CCVEPVVRDVEVKIRSVVMN criterion not met

Is the recorded value of amyloid nucleation score equal to or greater than 0.2 for this sequence? RKQCNKFGVWDQI criterion met

Is the recorded value of amyloid nucleation score equal to or greater than 0.2 for this sequence? NDCGSNDRLSNTFFWFLLFG criterion not met

Is the recorded value of amyloid nucleation score equal to or greater than 0.2 for this sequence? GLLGAVDRTVR criterion met

Is the recorded value of amyloid nucleation score equal to or greater than 0.2 for this sequence? TYQFMHVRLFRPMTSFIVYG criterion met

Is the recorded value of amyloid nucleation score equal to or greater than 0.2 for this sequence? SLTSSSICHRPHTCTVCV criterion not met

Is the recorded value of amyloid nucleation score equal to or greater than 0.2 for this sequence? CLSRLNVLWYSPFKHFILEC criterion not met

Is the recorded value of amyloid nucleation score equal to or greater than 0.2 for this sequence? TRSMSSAPADCVASGT criterion not met

Is the recorded value of amyloid nucleation score equal to or greater than 0.2 for this sequence? GSEMIFYIAVVALCLCIPEG criterion met

Is the recorded value of amyloid nucleation score equal to or greater than 0.2 for this sequence? IESSGWAGRGTYSTYLASNV criterion met

Is the recorded value of amyloid nucleation score equal to or greater than 0.2 for this sequence? KLIHWIILVWFSSGTLPCND criterion not met

Every entry's value here was drawn from the supplement of paper PMC12042874.
